System: human apolipoprotein B mRNA
protocolDescription: Inhibition of human apolipoprotein B mRNA levels in HepG2 cells, quantitative real-time PCR
Assay type: cell-based
setupConditions: HepG2 cells; human apolipoprotein B mRNA; oligonucleotides targeting genomic sequence SEQ ID NO 334; averages from two experiments
In the oligonucleotide strings, read from the 5' end, every base follows the letter of its sugar. An asterisk marks phosphorothioate; unmarked linkages are phosphodiester. Other units and linkages are bracketed, terminal groups are in braces. A string of capitals states the bases alone. e = 2'-O-(2-methoxyethyl) (MOE); [5mC] = 5-methylcytosine; d = 2'-deoxy (DNA)
readoutType: % INHIB (%)
Give bare numbers, in %.

Dear colleague, could you please provide % INHIB for the substances listed below?
1. 301081 (eG*eA*eG*eT*eG*dT*dG*dG*dT*d[5mC]*dT*dT*dG*d[5mC]*dT*eA*eG*eT*eG*e[5mC]; antisense) [compound 301081]
2. 301142 (eA*eT*eG*e[5mC]*eA*dG*d[5mC]*d[5mC]*dA*dG*dG*dA*dT*dG*dG*eG*e[5mC]*e[5mC]*eT*eA; antisense) [compound 301142]
3. 301064 (e[5mC]*eA*eG*eT*eG*d[5mC]*d[5mC]*dT*d[5mC]*dT*dG*dG*dG*dA*d[5mC]*e[5mC]*e[5mC]*e[5mC]*eA*e[5mC]; antisense) [compound 301064]
4. 301106 (antisense eA*eA*eA*eG*eA*dA*dA*d[5mC]*dT*dA*dT*d[5mC]*d[5mC]*dT*dG*eT*eA*eT*eT*e[5mC]) [compound 301106]
5. 301158 (e[5mC]*eT*eA*e[5mC]*e[5mC]*dT*d[5mC]*dA*dA*dA*dT*d[5mC]*dA*dA*dT*eA*eT*eG*eT*eT; antisense) [compound 301158]

46
54
60
12
28

----------
Test system: human apolipoprotein B mRNA
protocolDescription: Inhibition of human apolipoprotein B mRNA levels in HepG2 cells, quantitative real-time PCR
Type: cell-based
setupConditions: Table 2; HepG2 cells, 50 nM
In the oligonucleotide strings, read from the 5' end, every base follows the letter of its sugar. An asterisk marks phosphorothioate; unmarked linkages are phosphodiester. Other units and linkages are bracketed, terminal groups are in braces. A string of capitals states the bases alone. e = 2'-O-(2-methoxyethyl) (MOE); [5mC] = 5-methylcytosine; d = 2'-deoxy (DNA)
readoutType: Percent Inhibition 50 nM (%)
Numbers only, in %.

Reference set (3 entries):
147816 (antisense eT*e[5mC]*eA*eT*eA*d[5mC]*dG*dT*dT*dT*dA*dG*d[5mC]*d[5mC]*d[5mC]*eA*eA*eT*e[5mC]*eT) [compound 147816] ... 25
147820 (antisense eG*eA*eA*e[5mC]*eA*d[5mC]*dA*dT*dA*dG*d[5mC]*d[5mC]*dG*dA*dA*eT*eG*e[5mC]*e[5mC]*eG) [compound 147820] ... 10
147788 (antisense eT*eT*eT*e[5mC]*eT*dG*dT*dT*dG*d[5mC]*d[5mC]*dA*d[5mC]*dA*dT*eT*eG*e[5mC]*e[5mC]*e[5mC]) [compound 147788] ... 54

// next item, Percent Inhibition 50 nM requested
Note to self: Percent Inhibition 50 nM of 147806 (antisense eA*eT*eG*eT*eG*dG*dT*dA*dA*d[5mC]*dG*dA*dG*d[5mC]*d[5mC]*e[5mC]*eG*eA*eA*eG) [compound 147806] with human apolipoprotein B mRNA was 23
